The measurements presented in this section are drawn from patent US8101596B2.

- target-under-test: human recombinant M3 expressed in CHO cells (Homo sapiens, UniProt P20309)
- Sequence (P20309 whole entry): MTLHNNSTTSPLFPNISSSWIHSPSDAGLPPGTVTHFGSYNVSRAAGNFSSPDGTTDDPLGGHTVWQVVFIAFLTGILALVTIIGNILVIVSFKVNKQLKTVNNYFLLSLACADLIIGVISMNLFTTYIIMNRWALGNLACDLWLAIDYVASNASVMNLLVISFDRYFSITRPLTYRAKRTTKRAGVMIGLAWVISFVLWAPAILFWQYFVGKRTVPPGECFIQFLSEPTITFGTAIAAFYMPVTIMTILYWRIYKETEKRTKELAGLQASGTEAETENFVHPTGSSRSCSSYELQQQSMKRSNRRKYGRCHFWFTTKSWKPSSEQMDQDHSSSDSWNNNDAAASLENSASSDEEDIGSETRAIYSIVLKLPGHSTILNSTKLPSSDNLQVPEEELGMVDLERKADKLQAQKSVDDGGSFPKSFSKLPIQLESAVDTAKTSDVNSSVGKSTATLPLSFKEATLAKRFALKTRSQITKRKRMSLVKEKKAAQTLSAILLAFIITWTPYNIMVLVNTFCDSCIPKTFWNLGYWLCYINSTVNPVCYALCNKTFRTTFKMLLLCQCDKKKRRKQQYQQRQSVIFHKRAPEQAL
- experimental-details: M3 muscarinic receptor binding assay
readout-name: Ki

Item under review: CC(C)(CCN1CCN(C2=Nc3ccccc3Oc3ccc(Cl)cc32)CC1)C(=O)O . Reported Ki?
> 10 µM

###

Task for the reader: assign each of the following molecules its reported LUSB (longest uninterrupted sleep bout).
- System: male Wistar rats
- experimental-details: Sleep-wakefulness monitoring (SCORE-2000) in rats
- Type: in vivo, rat
- particulars: 3 mg/kg oral, CT-18
Numbers only, in min.

CC(C)(CN1CCN(C2=Nc3ccccc3Oc3ccc(Cl)cc32)CC1)C(=O)O :: 13.5
CC(C)(CN1CCN(C2=Nc3ccccc3Oc3ccccc32)CC1)C(=O)O :: 18.8
Cc1ccc2c(c1)N=C(N1CCN(CC(C)(C)C(=O)O)CC1)c1ccccc1O2 :: 18.6
Cc1ccc2c(c1)Oc1ccccc1N=C2N1CCN(CC(C)(C)C(=O)O)CC1 :: 17

Please look at the following molecule next.
Which LUSB (longest uninterrupted sleep bout) value belongs to COc1ccc2c(c1)C(N1CCN(CC(C)(C)C(=O)O)CC1)=Nc1ccccc1O2 ?
8.3

###

- target-under-test: human recombinant M1 expressed in CHO cells (Homo sapiens)
- Sequence (P11229 whole entry): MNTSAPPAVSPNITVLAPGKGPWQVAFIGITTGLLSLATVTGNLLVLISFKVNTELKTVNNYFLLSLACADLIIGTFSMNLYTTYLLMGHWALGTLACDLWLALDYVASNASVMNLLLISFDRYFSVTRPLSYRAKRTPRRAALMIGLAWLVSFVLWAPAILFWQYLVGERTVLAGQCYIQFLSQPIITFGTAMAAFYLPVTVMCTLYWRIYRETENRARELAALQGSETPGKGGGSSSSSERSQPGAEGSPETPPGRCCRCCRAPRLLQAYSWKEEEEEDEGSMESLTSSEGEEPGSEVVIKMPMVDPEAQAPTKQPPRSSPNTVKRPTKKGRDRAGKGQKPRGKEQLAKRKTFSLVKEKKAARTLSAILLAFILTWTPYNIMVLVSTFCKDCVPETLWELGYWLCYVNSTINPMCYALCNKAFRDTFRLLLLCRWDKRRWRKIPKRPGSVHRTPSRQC
- experimental-details: M1 muscarinic receptor binding assay
readout-name: Ki

human recombinant M1 expressed in CHO cells (Homo sapiens) / Ki / CC(C)(CCN1CCN(C2=Nc3ccccc3Oc3ccc(Cl)cc32)CC1)C(=O)O : value?
> 10 µM
